Below: a set of entries, each annotated with reported logP.
# answer = number (no unit)

>>> print(df.to_string())
                        line_notation  value_kind  recorded_number
0  N#Cc1ccc(/C=C2\CCCc3ccccc3C2=O)cc1        logP             4.27

Query string: Entry CCCC(C)(COC(N)=O)COC(N)=O needs its logP filled in; supply it.
Result string: 1.12

* * *

Reported logP is given for each of the following compounds.
No unit in the answer, please; the number alone is enough.

Worked examples follow.
>>> print(df.to_string())
                                   compound  recorded_number
0  CC(=O)OC[C@H]1O[C@@H](n2cc(C)c(=O)[nH]c2=O)C[C@@H]1N=[N+]=[N-]             0.45
1  CC(=O)OCC1OC(n2ccc(N)nc2=O)C(O)C1O (stereo not drawn)            -1.25

# next compound below
Query string: # return recorded logP for entry Cc1cn(C2CC(N=[N+]=[N-])C(COC(=O)c3ccncc3)O2)c(=O)[nH]c1=O (stereo not drawn)
Result string: 0.8

* * *

test: from Pratesi, P.; Villa, L.; Ferri, V.; DeMicheli, C.; Grana, E.; Grieco, C.; Silipo, C.; Vittoria, A. (1979). On the additive-constitutive properties of substituent hydrophobic parameters in a set of …
Classification field: enter Criterion met for logP values not below -0.3, Criterion not met for values below it.

Below are worked cases with known answers.
                             compound     category_label
0                     O=C(O)CCCC(=O)O      Criterion met
1                              C=CC#N      Criterion met
2                      CC(=O)CCC(=O)O  Criterion not met
3  c1ccc(C2CO2)cc1 (stereo not given)      Criterion met

Query string: Does the compound OCCNc1ccccc1 have recorded logP that is -0.3 or more?
Result string: Criterion met

* * *

assay: method code SF-AS, from DOI: 10.1080/10826076.2011.619030
VALUE_KIND: logP
Keep the answer to the number alone.

A selection of reference data follows.
                                   molecule  value_kind  recorded_number
0  CC1(C)OC2C(CO)OC(n3ccc(=O)n(Cc4ccccc4)c3=O)C2O1 (centres undefined)        logP             1.82
1  CC1(C)OC2C(CO)OC(n3ccc(=O)n(C(=O)c4ccccc4)c3=O)C2O1 (centres undefined)        logP             0.95
2  O=C(OCc1ccccc1)OC1C(CO)OC(n2ccc(=O)[nH]c2=O)C1OC(=O)OCc1ccccc1 (centres undefined)        logP             2.96

Query string: Recall and state the measured logP for CC1(C)OC2C(CO)OC(n3ccc(=O)[nH]c3=O)C2O1 (centres undefined) .
Result string: -0.47

* * *

experiment: method code SF-AS, from Holmes, L.; Lough, E. (1976). Effect of Intramolecular Hydrogen Bonding on Partition Coefficients [Technical Note]. Defence Research Establishment Suffield.
Below, each entry is listed alongside its reported logP.
Please reply with the value in numeric form only.

        line_notation  recorded_number
0  CCC(=O)c1ccc(O)cc1             2.03

Okay, next one:
Query string: Quickly give me recorded logP for CCC(=O)c1ccccc1O
Result string: 2.54

* * *

settings: pH 7.4
VALUE_KIND: logD
When you answer, write just the number.

Query string: Indicate the recorded logD value for this compound: CCN1CC(C(O)C(CC2CCCCC2)NC(=O)C(Cc2cscn2)NC(=O)C(CC(=O)N2CCOCC2)Cc2ccccc2)OC1=O (stereo unspecified)
Result string: 2.83

* * *

test: method code SF-RC, from DOI: 10.1016/j.nucmedbio.2005.06.001, PMID: 16253804; conditions: pH 7.4
VALUE_KIND: logD
# print the numeric value only

>>> df
                              line_notation  recorded_number
0  CNc1ccc(C=Cc2ccc(OCCOCCOCCOCCOCCF)cc2)cc1             2.28

Lab note: next molecule to report on.
Query string: Specify measured logD for CNc1ccc(C=Cc2ccc(OCCOCCOCCOCCF)cc2)cc1 .
Result string: 2.05

* * *

Recorded logD values for a group of compounds are listed next.
experiment: method code SF-HPLC, from DOI: 10.1016/j.jpba.2011.06.023, PMID: 21782368; settings: pH 7.4

In [3]: df
Out[3]:
                                   compound  result
0  CC(C)OC(=O)CC(CNC(=O)OC(C)(C)C)c1ccc(Cl)cc1 (configuration not stated)     3.4

Turning now to a further record.
Query string: Please report the measured logD for CCCOC(=O)CC(CNC(=O)OC(C)(C)C)c1ccc(Cl)cc1 (configuration not stated)
Result string: 3

* * *

Overview of reported logP across a group of compounds:
assay: method code RP-HPLC, from DOI: 10.1021/jm00011a007, PMID: 7540207

>>> print(df.to_string())
                              line_notation  result
0  CCCCCN=c1ccn(Cc2cccc3ccccc23)c2cc(Cl)ccc12    4.01

// next item, logP requested
Query string: Report measured logP; entry is CCCCCN=c1ccn(Cc2ccc3ccccc3c2)c2cc(Cl)ccc12
Result string: 4.16

* * *

VALUE_KIND: logP

Query string: For the molecule COC(=O)CC(O)CC(O)C=Cn1c(C(C)C)nc(-c2ccncc2)c1-c1ccc(F)cc1 (stereo unspecified) , report logP.
Result string: 0.9

* * *

test: method code SF-HPLC, from DOI: 10.1016/0006-2952(84)90322-8, PMID: 6704182
VALUE_KIND: logP
Respond numerically, and do not add a unit to the figure.

Query string: Given the compound CC(=O)Nc1ccn([C@@H]2O[C@H](CO)[C@@H](O)[C@@H]2O)c(=O)n1 , write its reported logP.
Result string: -1.35

* * *

VALUE_KIND: logP
Answer with a bare number; do not write a unit.

Query string: Return logP for the following compound: O=C(O)Cc1ccc2c(c1)C(=O)c1ccccc1CS2
Result string: 2.97

* * *

Label key: 1.0 means logP under -2; 0.0 means logP of -2 or more.

                                   compound  category_label
0  CC(=O)N(CCO)c1c(I)c(C(=O)N(C)CC(O)CO)c(I)c(C(=O)N(C)CC(O)CO)c1I (stereo unspecified)             1.0

Query string: Answer whether the compound CC(=O)N(C)c1c(I)c(C(=O)NCC(O)CO)c(I)c(C(=O)NCC(O)CO)c1I (stereo unspecified) has logP strictly less than -2
Result string: 1.0

Query string: logP under -2? Item: CC(=O)Nc1c(I)c(C(=O)N(C)CC(O)CO)c(I)c(C(=O)N(C)CC(O)CO)c1I (stereo unspecified)
Result string: 1.0

Query string: Confirm or reject: logP of CC(=O)Nc1c(I)c(C(=O)NC(CO)CO)c(I)c(C(=O)NC(CO)CO)c1I lies strictly below -2
Result string: 1.0

Query string: Check if logP falls below -2 for CC(=O)N(CCO)c1c(I)c(C(=O)NCC(O)CO)c(I)c(C(=O)NCC(O)CO)c1I (stereo unspecified) .
Result string: 1.0

Query string: Is it true that logP reported for CC(=O)N(CC(O)CO)c1c(I)c(C(=O)NCCO)c(I)c(C(=O)NCCO)c1I (stereo unspecified) is less than -2?
Result string: 0.0

* * *

logP overview
assay: method code SF-RC, from DOI: 10.1002/ps.2780130506
Give only the figure.

Below: 3 compounds and their reported logP.
>>> df
                    line_notation  recorded_number
0                 CNC(=O)ON=C(C)C            -0.13
1  NC(=O)Nc1ccc(Oc2ccc(Br)cc2)cc1              3.7
2         CNC(=O)ON=Cc1ccc(Cl)cc1             2.27

Here's the next entry for you.
Query string: Provide only the value of recorded logP for CNC(=O)O/N=C/c1ccccc1
Result string: 1.49

* * *

VALUE_KIND: logP

Query string: Tell us which logP value is on record for CC(C)C(NC(=O)CN1C(=O)C(NC(=O)NCc2cc[n+]([O-])cc2)CC=C1c1ccccc1)C(=O)C(F)(F)F (stereo unspecified)
Result string: 1.13

* * *

assay: method code SF-RC, from DOI: 10.1016/j.nucmedbio.2003.12.003, PMID: 15093819; settings: pH 7.0
# reported logD; entries follow
Answer with the value's number alone.

In [3]: df
Out[3]:
                              line_notation  recorded_number
0  O=C(NCCc1ccc(S(=O)(=O)NC2CCCCC2)cc1)c1cc(I)ccc1OCCF             2.15

// next item, logD requested
Query string: State, in one line, measured logD of O=C(NCCc1ccc(S(=O)(=O)NC2CCCCC2)cc1)c1cc(Cl)ccc1OCCF
Result string: 2.09
